Experiment Summary: NCI Yeast Anticancer Drug Screen. Data for the rad50 strain (AID 155);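 further: 0% = growth of vehicle-only cultures of the same strain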
Condition Set: S. cerevisiae rad50 strain growth inhibition; at 50.0 µM; hits give high values
Compounds without any hit were thinned out: in the full panel of roughly 79,000, 15% have a hit.
growth inhibition: recorded values
Entry rule: numbers only, all in %.

Some entries whose results are on file:
CCC(C)(C)C(=O)Nc1cccc(OC(=O)NC)c1 = 2.1
NC(=O)CCC(N)C(=O)O.[Cl-].[Cl-].[Cl-].[Cl-].[Pt+2] (centres undefined) = -1.4
C/C=C/C(=O)O = 4.3
O=C(CC(=O)c1ccccc1)c1ccccc1.[Tl] = 96.2
C[C@]12CC[C@H]3[C@@H](CC=C4C=C(P(=O)(O)O)CC[C@@]43C)[C@@H]1CC[C@@H]2O = -8.1

## Task In one line, give reported growth inhibition of the entry NC(=O)C1(Br)CCCCC1 .
## Result -11.8

## Task In one line, give reported growth inhibition of the entry NCCCN1CCN(c2ccccc2)CC1 .
## Result -0.45

## Task In one line, give reported growth inhibition of the entry S=P(N1CCCCC1)(N1CCCCC1)N1CCCCC1 .
## Result -6.95

## Task In one line, give reported growth inhibition of the entry NCCc1c[nH]c2ccccc12 .
## Result 10.8

## Task In one line, give reported growth inhibition of the entry CC(=O)OC1CCC2(C)C(CCC3C2CCC2(C)C(c4ccc(=O)oc4)C(OC(C)=O)CC32O)C1 (centres undefined) .
## Result 45.5

## Task In one line, give reported growth inhibition of the entry CC1(C)N=C(N)N=C(N)N1c1ccc(CCC(=O)Nc2ccc(S(=O)(=O)F)cc2)cc1 .
## Result 27.6

## Task In one line, give reported growth inhibition of the entry CCC1(CC)C(=O)NC(=O)[N]([Sn]([CH3])([CH3])[N]2C(=O)NC(=O)C(CC)(CC)C2=O)C1=O .
## Result -17.3

## Task In one line, give reported growth inhibition of the entry O=C1NC(=O)C2(CCOCC2)C(=O)N1 .
## Result -5.15

## Task In one line, give reported growth inhibition of the entry CN(C)c1ccc([N+](=O)[O-])c([N+](=O)[O-])c1 .
## Result -14.8

* * *

Experiment Summary: NCI Yeast Anticancer Drug Screen. Data for the mec2-1 strain (AID 157)
Condition Set: S. cerevisiae mec2-1 strain, at 50.0 µM
About 79,000 compounds went through this panel and 15% of them were active in at least one assay; those are over-represented in the sample as a whole. The source made the active and inactive calls. Cut-off read from the data, not from the text of the source: active = growth inhibition above about 70%; inactive = the rest.
A correct response names exactly one class from active, inactive

Consider the following illustrative entries.
Cc1ccc(NC(=O)c2cc3ccccc3cc2O)c(C)c1 = inactive
COc1ccc2[nH]c3c(c2c1)CCNC3C (stereo unspecified) = inactive
Cc1ccc(Oc2ccc3c(c2)CN(C)CC3)cc1 = active
CC(C)(C)[CH2][Sn]([Cl])([CH2]C(C)(C)C)[CH2]C(C)(C)C = active

## Task Could you please tell me the result logged for CC(C)NC(=O)C(Cl)CCl (stereo unspecified) in this assay?
## Result inactive

## Task Could you please tell me the result logged for [CH3][Sb]1([Br])[CH2]CC[CH2]1 in this assay?
## Result inactive

## Task Could you please tell me the result logged for CNCCc1ccc(O)c(O)c1 in this assay?
## Result inactive

## Task Could you please tell me the result logged for CN1CCN(c2cc3nsnc3c3nsnc23)CC1 in this assay?
## Result inactive

## Task Could you please tell me the result logged for Nc1ccc(Cl)cc1.Nc1ccc(Cl)cc1.Nc1ccc(Cl)cc1.O=C([O-])C(=O)[O-].O=C([O-])C(=O)[O-].[H+].[Ru+5] in this assay?
## Result inactive

## Task Could you please tell me the result logged for NC(Cc1ccc(O)c(F)c1)C(=O)O (stereo unspecified) in this assay?
## Result inactive

Source listed as PubChem BioAssay (NCI).
